Origin of values: a melting point compilation (Tetko et al.; mined from patent text by program, amines drawn as free bases though some values may be those of a salt)

melting point: recorded values

Please review the following examples before continuing.
# compound, assay.endpoint, experimental.value
data = [
    ("COC(=O)c1ccc2sc(C)c(Br)c2c1", "melting point", "84 to 85 °C"),
    ("CCOC(=O)C(=O)Nc1coc2cc(OC)ccc2c1=O", "melting point", "218 to 220 °C"),
    ("Nc1ccccc1SC(F)(F)F", "melting point", "30 to 31 °C"),
    ("CNc1ncnc2ccc(I)cc12", "melting point", "245 °C"),
    ("CC(=O)Nc1cccc2c1Cc1ccccc1C2=O", "melting point", "266 °C"),
]

Here is the next item to consider.
Please list melting point recorded for the compound COc1cc(OC)nc(Oc2ccc3ccccc3c2C(=O)O)n1
187 to 189 °C

* * *

melting point: recorded values

Please review the following examples before continuing.
# compound, melting point
rows = [
    ("CSc1nc2cc3c(cc2[nH]1)NC(=O)C3(C)C", "248 to 250 °C"),
    ("COc1ccc(CC#N)c(CCNC(C)=O)c1OC", "134 to 136 °C"),
    ("O=c1oc2ccc(Cl)cc2c(O)c1CCCOc1ccccc1", "162 to 163 °C"),
    ("NCCc1ccc(OCc2ccccc2)cc1", "58.7 to 59.6 °C"),
    ("O=C1OC(c2ccccc2)C(c2ccccc2)=C1C(=O)N1CCOCC1 (configuration not stated)", "204 to 206 °C"),
]

Please list melting point recorded for the compound CC(C)c1csc(/C=C/c2cc(N)ccc2Cl)n1
82 to 85 °C

Please list melting point recorded for the compound COCCOc1ccc2c(Nc3ccc(Cl)cc3Cl)c(C#N)cnc2c1
144 to 145 °C

Please list melting point recorded for the compound O=C1Cc2cc(-c3cccc(Cl)c3)ccc2N1
169 to 171 °C

Please list melting point recorded for the compound CCc1cnc(Nc2ccccn2)s1
113 °C

Please list melting point recorded for the compound CN(c1ccc(Cl)cc1[N+](=O)[O-])S(=O)(=O)c1ccc(Cl)s1
85 to 86 °C

Please list melting point recorded for the compound Cc1ccc(Sc2cccc(-c3nc(=O)c4ccccc4s3)n2)cc1
177 to 178 °C

Please list melting point recorded for the compound Cc1cc(O)c(Oc2ccccc2C#N)cc1[N+](=O)[O-]
157 to 159 °C

Please list melting point recorded for the compound CC(=O)Nc1c(C(=O)c2ccc(OC(F)(F)F)cc2)[nH]c2cc(Cl)ccc12
213 to 214 °C

Please list melting point recorded for the compound CC(C)(C)OC(=O)C1CCCN(C(=O)OCc2ccccc2)N1C(=O)C(Br)CCBr (configuration not stated)
81 to 82 °C

Please list melting point recorded for the compound COc1cccc(CNC(=O)c2c(-c3ccc(F)cc3)c(-c3ccc(F)cc3)c(C=O)n2C(C)C)c1
167 to 168 °C

Please list melting point recorded for the compound CON(C)C(=O)c1cc(O)cc2cc(-c3ccc(O)cc3)oc12
125 to 127 °C

Please list melting point recorded for the compound CC(C)(C)c1ncc(C(C(=O)O)C(C)(C)C)cn1 (single isomer, unassigned; (+))
222 to 224 °C

Please list melting point recorded for the compound Cc1oc(-c2ccccc2)nc1COc1ccc(COc2ccc(Br)cc2CC(=O)O)cc1
162 to 163 °C

Please list melting point recorded for the compound O=C(O)c1ccc(-c2cccc3ccccc23)cc1
221 to 224 °C

* * *

melting point: recorded values

# molecule, melting point
measured = [
    ("CCCc1n[nH]c2c(=O)[nH]c(-c3ccccc3OCC)nc12", "199 to 201 °C"),
    ("CCC(=O)C1C(=O)CC(C#N)CC1=O (centres undefined)", "70 to 74 °C"),
    ("C[C@]12C[C@H](c3ccc(O)cc3)C3=C4CCC(=O)C=C4CC[C@H]3[C@@H]1CCC2=O", "220 °C"),
    ("CN1CCC2(CC1)OC(c1ccccc1)c1ccccc12 (centres undefined)", "123 to 124 °C"),
    ("CN(c1cc(N2C(=O)C3CC(Cl)CN3C2=O)c(F)cc1Cl)S(=O)(=O)CCl (centres undefined)", "119 to 124 °C"),
]

Please list melting point recorded for the molecule CC12CCC(=O)C=C1CCC1C2CCC2(C)C1CCC2(O)C(=O)CCl (centres undefined)
239 °C

Please list melting point recorded for the molecule FC(F)(F)c1cccc(Oc2cc(Oc3cccc(C(F)(F)F)c3)nc(Br)n2)c1
126 to 129 °C

Please list melting point recorded for the molecule C=CCN(CC=C)c1nc(N(CC=C)CC=C)nc(N2CCN(C(=O)n3ccnc3)CC2)n1
94 to 95 °C

Please list melting point recorded for the molecule CC(C)(C)OC(=O)N1CCC[C@@H](OC(=O)Nc2ccc(Cl)cc2)C1
160 to 161 °C

* * *

assay.endpoint: melting point

Please review the following examples before continuing.
# compound, experimental.value
rows = [
    ("Cc1ccnc(CN(C(=O)C(C)Cl)c2ccccc2)n1 (stereo not given)", "110 °C"),
    ("O=S(=O)(Nc1cnc(-n2cnnn2)nc1NCc1ccccc1)c1ccc(Br)cc1", "184 °C"),
    ("CCOC(=O)c1c(N)cc([N+](=O)[O-])cc1CC", "68 to 70 °C"),
    ("CCc1cccc(C)c1CNc1cc(Cl)nc2c1nc(C)n2C", "157 to 159 °C"),
]

Please list melting point recorded for the compound Cc1sc(CO)c(C)c1Br
85 to 90 °C

Please list melting point recorded for the compound COC(=O)c1cc(-c2ccc(OC)c(OC)c2)nn(CC=Cc2ccc(Cl)cc2)c1=O
118 to 119 °C

Please list melting point recorded for the compound CN1CCN(Cc2ccc(C(=O)Nc3cccc(Nc4ncc(C#N)c(-c5cccs5)n4)c3)cc2)CC1
208 to 209 °C

Please list melting point recorded for the compound COc1cc(OC)c2c(=O)[nH]c(-c3ccc(OC)c(-c4ccc(C(=O)N(C)C)cc4Cl)c3)nc2c1
> 300 °C

Please list melting point recorded for the compound Cc1cccc(C=CC(=O)O)c1[N+](=O)[O-]
230 to 235 °C

Please list melting point recorded for the compound CCOC(=O)C(C)NC(=O)N(N(CCCl)S(C)(=O)=O)S(C)(=O)=O (stereo not given)
111 to 112 °C

* * *

melting point: recorded values

# compound, assay.endpoint, experimental.value
measured = [
    ("CCOC(=O)c1cnc2c(nc(C)n2C)c1Cl", "melting point", "85 to 90 °C"),
    ("O=C(CCCCCNCC(O)c1ccccc1)OCc1ccccc1 (stereo not given)", "melting point", "77 to 78 °C"),
    ("Cc1cc(C#N)ccc1N1CCCn2c1nc1c(Cl)ccc(C(OCC(F)(F)F)C3CC3)c12 (stereo not given)", "melting point", "207 to 209 °C"),
    ("O=C1NC(=O)C2c3c([nH]c4ccc(Cl)cc34)-c3[nH]c4ccc(Cl)cc4c3C12 (stereo not given)", "melting point", "> 300 °C"),
    ("COc1cc(Cl)cc(CSCCNC(=O)c2c(Cl)cccc2Cl)c1", "melting point", "83 to 84 °C"),
]

Please list melting point recorded for the compound CCOC(=O)C(=CNc1nonc1C)C(=O)c1cc(F)c(Cl)nc1Cl
139 to 142 °C

Please list melting point recorded for the compound COc1ccc(CCN(C)CCCCc2ccc(NC(=O)c3cccc4c(=O)c5ccccc5[nH]c34)cc2)cc1OC
120 °C

Please list melting point recorded for the compound CC(C)c1nn(-c2ccc(Cl)cn2)cc1CO
135 to 136 °C

Please list melting point recorded for the compound Cc1cnc2ccnn2c1-c1cccc(C(F)(F)F)c1
168 to 169 °C

Please list melting point recorded for the compound O=C(O)CCc1ccc(CCNC(=S)Cc2ccccc2)cc1
210 to 212 °C

* * *

melting point: recorded values

Please review the following examples before continuing.
# molecule, assay.endpoint, experimental.value
measured = [
    ("COc1ccccc1Oc1c(Cl)nc(N2CCOCC2)nc1OCCOCc1ccccc1", "melting point", "133 to 134 °C"),
    ("Cc1nnc(-c2ccc3occ(-c4ccc(S(C)(=O)=O)cc4)c3n2)o1", "melting point", "250 to 251 °C"),
    ("COC(=O)c1cc(N)c(NC(C)=O)c(Br)c1O", "melting point", "217 to 219 °C"),
]

Please list melting point recorded for the molecule CCOC(=O)C(=CNc1ncnc2cc(C)c(C)cc12)C(=O)OCC
146 to 148 °C

Please list melting point recorded for the molecule CCOC(=O)C1=Cc2cc(I)ccc2OC1C(F)(F)F (stereo not given)
105 to 106 °C

* * *

assay.endpoint: melting point

Please review the following examples before continuing.
# compound, melting point
measured = [
    ("CCCC(=O)c1cnc2ccc(OC)cc2c1Cl", "73 to 75 °C"),
    ("O=c1c2c(Cc3cccc(OC(F)(F)F)c3)n[nH]c2c2cccnc2n1-c1cccc(C(F)(F)F)c1", "129 to 132 °C"),
    ("CC(=O)Nc1cnc(-c2ccccc2)nc1N", "224 to 225 °C"),
    ("CNC(C)Cc1ccc(CCCC(=O)O)cc1 (centres undefined)", "170 to 172 °C"),
    ("CN(C)c1ccccc1CSc1nccc(=O)[nH]1", "156 to 158 °C"),
]

Please list melting point recorded for the compound CCOC(=O)C1=C(C)N=C(OC)N(C(=O)OCC)C1c1cccc([N+](=O)[O-])c1 (centres undefined)
61.5 to 64.5 °C

Please list melting point recorded for the compound CC(=O)SC[C@@H](C(=O)N[C@H](CC(C)C)c1nnn[nH]1)C(F)(F)F
180 to 184 °C

Please list melting point recorded for the compound CN(C)CCNC(=O)Oc1ccc(Cl)cc1Cn1nc(-c2ccc(C(F)(F)F)cc2)oc1=O
158 to 159 °C

Please list melting point recorded for the compound CCCc1nc(SC)c(C(O)(C(=O)O)c2ccccc2)n1Cc1ccc(-c2ccccc2S(=O)(=O)NC(=O)NCc2ccccc2)cc1 (centres undefined)
170 °C
